molecular target: JAK3 (Homo sapiens (Human), UniProt P52333); assay: Purified kinase assay (Z'-LYTE), JAK3; assay type: biochemical; conditions: Table 1; read-out: JAK3 IC50
Sequence (P52333 822-1111): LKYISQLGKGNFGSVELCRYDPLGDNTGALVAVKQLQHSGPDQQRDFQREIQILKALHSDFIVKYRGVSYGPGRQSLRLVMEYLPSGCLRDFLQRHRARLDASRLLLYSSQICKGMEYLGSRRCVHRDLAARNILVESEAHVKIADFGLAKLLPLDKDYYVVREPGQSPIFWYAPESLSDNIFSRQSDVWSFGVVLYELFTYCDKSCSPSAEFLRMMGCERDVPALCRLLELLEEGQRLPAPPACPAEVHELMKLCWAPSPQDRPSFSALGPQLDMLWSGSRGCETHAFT
pIC50: −log10 of the molar value.
Documented pIC50 across a set of compounds

Example entries and their recorded answers appear below.
{"mol": "CC(=O)N1CCN(c2ccc(Nc3cc(NCc4cccc(C)c4)c(C(N)=O)nn3)cc2)CC1", "pIC50": "7.00 to 8.00"}
{"mol": "CC(=O)N1CCN(c2ccc(Nc3cc(NCc4cccnc4)c(C(N)=O)nn3)cc2)CC1", "pIC50": "6.00 to 7.00"}
{"mol": "CC(C)n1cc(Nc2cc(NCc3cccc(F)c3)c(C(N)=O)nn2)cn1", "pIC50": "7.00 to 8.00"}
{"mol": "CC(=O)N1CCN(c2ccc(Nc3cc(NCc4cc(-c5cccnc5)ccc4F)c(C(N)=O)nn3)cc2)CC1", "pIC50": "7.00 to 8.00"}
{"mol": "NC(=O)c1nnc(Nc2cccc(N3CCOCC3)n2)cc1NCc1cccc(F)c1", "pIC50": "< 6.00"}

What is its pIC50 for JAK3 (Homo sapiens (Human), UniProt P52333)? Entry: NC(=O)c1nnc(Nc2ccc(N3CCS(=O)(=O)CC3)cc2)cc1NCc1cccc(F)c1
8.00 to 9.00

What is its pIC50 for JAK3 (Homo sapiens (Human), UniProt P52333)? Entry: NC(=O)c1nnc(Nc2ccc(N3CCNCC3)cc2)cc1NCC1CCC1
6.00 to 7.00

What is its pIC50 for JAK3 (Homo sapiens (Human), UniProt P52333)? Entry: NC(=O)c1nnc(Nc2ccc(C(=O)N3CCCC3)cc2)cc1NCc1cccc(F)c1F
8.00 to 9.00

What is its pIC50 for JAK3 (Homo sapiens (Human), UniProt P52333)? Entry: NC(=O)c1nnc(Nc2ccc(N3CCNCC3)cc2)cc1NCc1cccc2ccsc12
8.00 to 9.00

What is its pIC50 for JAK3 (Homo sapiens (Human), UniProt P52333)? Entry: CC(=O)N1CCN(c2ccc(Nc3cc(NCc4cccc(F)c4)c(C(N)=O)nn3)cn2)CC1
6.00 to 7.00

----------
molecular target: JAK2 (Homo sapiens (Human), UniProt O60674); assay: Purified kinase assay (Z'-LYTE), JAK2; format: biochemical; details: Table 1; read-out: JAK2 IC50
Sequence (O60674 849-1124): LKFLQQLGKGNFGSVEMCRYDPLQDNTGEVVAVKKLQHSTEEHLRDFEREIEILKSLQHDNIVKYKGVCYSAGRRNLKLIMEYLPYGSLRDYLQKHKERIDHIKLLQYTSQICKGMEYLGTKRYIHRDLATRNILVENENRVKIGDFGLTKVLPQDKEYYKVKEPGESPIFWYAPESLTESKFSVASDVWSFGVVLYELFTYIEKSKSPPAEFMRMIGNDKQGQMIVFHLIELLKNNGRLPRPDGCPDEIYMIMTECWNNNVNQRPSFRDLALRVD
Documented IC50 across a set of molecules

{"molecule": "NC(=O)c1nnc(Nc2cnn(CC3CCOCC3)c2)cc1NCc1cccc(F)c1F [Compound 124]", "IC50": "100 to 1000 nM"}
{"molecule": "CCn1cc(Nc2cc(NCc3cccc(F)c3F)c(C(N)=O)nn2)cn1 [Compound 120]", "IC50": "100 to 1000 nM"}
{"molecule": "CC(=O)N1CCN(C(=O)c2ccc(Nc3cc(NCc4cccc(F)c4)c(C(N)=O)nn3)cc2)CC1 [Compound 81]", "IC50": "100 to 1000 nM"}
{"molecule": "CC(=O)N1CCN(c2ccc(Nc3cc(NCc4ccccc4F)c(C(N)=O)nn3)nc2)CC1 [Compound 28]", "IC50": "10 to 100 nM"}

Tell me the measured IC50 of NC(=O)c1nnc(Nc2ccc(N3CCOCC3)cc2)cc1NCc1cc(F)cc(F)c1 [Compound 36] , please.
100 to 1000 nM

Tell me the measured IC50 of Cc1cc(Nc2cc(NCc3cccc(F)c3)c(C(N)=O)nn2)ccc1C(=O)N1CCCC1 [Compound 61] , please.
10 to 100 nM

Tell me the measured IC50 of CC(=O)Nc1cccc(Nc2cc(NC3CCC3)c(C(N)=O)nn2)c1 [Compound 7] , please.
100 to 1000 nM

Tell me the measured IC50 of CC(=O)N(C)c1ccc(Nc2cc(NCc3cccc(F)c3)c(C(N)=O)nn2)cc1 [Compound 101] , please.
100 to 1000 nM

Tell me the measured IC50 of CC(=O)N1CCN(c2ccc(Nc3cc(NCc4cccc(C)c4)c(C(N)=O)nn3)cc2)CC1 [Compound 47] , please.
100 to 1000 nM

Tell me the measured IC50 of CC(=O)N1CCC(Cn2cc(Nc3cc(NCc4cccc5ccsc45)c(C(N)=O)nn3)cn2)CC1 [Compound 125] , please.
10 to 100 nM

Tell me the measured IC50 of CC(=O)Nc1cccc(Nc2cc(NCc3cccc(F)c3)c(C(N)=O)nn2)c1 [Compound 65] , please.
100 to 1000 nM

Tell me the measured IC50 of CC(=O)N1CCN(c2ccc(Nc3cc(NC4CCCCC4)c(C(N)=O)nn3)cc2)CC1 [Compound 8] , please.
100 to 1000 nM

Tell me the measured IC50 of C[S+]([O-])Cc1ccc(Nc2cc(NCc3cccc(F)c3)c(C(N)=O)nn2)cc1 (centres unmarked) [Compound 105] , please.
100 to 1000 nM

Tell me the measured IC50 of NC(=O)c1nnc(Nc2ccc(N3CCNCC3)nc2)cc1NCc1cccc(F)c1 [Compound 50] , please.
> 1000 nM

Tell me the measured IC50 of CC(=O)N1CCN(c2ccc(Nc3cc(NCc4ccccc4F)c(C(N)=O)nn3)cc2)CC1 [Compound 18] , please.
100 to 1000 nM

----------
target: JAK3 (Homo sapiens (Human)); assay: Purified kinase assay (Z'-LYTE), JAK3; format: biochemical; details: Table 1; read-out: JAK3 IC50
pIC50: −log10 of the molar value.
Documented pIC50 across a set of compounds

Tell me the measured pIC50 of CC(=O)N1CCN(c2ccc(Nc3cc(NCc4cccc(-n5ccnc5)c4)c(C(N)=O)nn3)cc2)CC1 [Compound 68] , please.
7.00 to 8.00

Tell me the measured pIC50 of CC(=O)N1CCN(c2ccc(Nc3cc(NCC4CCNCC4)c(C(N)=O)nn3)cc2)CC1 [Compound 63] , please.
6.00 to 7.00

Tell me the measured pIC50 of CN(C)C(=O)C1CCN(c2ccc(Nc3cc(NCc4cccc(F)c4)c(C(N)=O)nn3)cc2)CC1 [Compound 90] , please.
7.00 to 8.00

Tell me the measured pIC50 of NC(=O)c1nnc(Nc2ccc(N3CCOCC3)cc2)cc1NCc1cc(F)ccc1F [Compound 37] , please.
7.00 to 8.00

Tell me the measured pIC50 of CC(=O)N1CCN(c2ccc(Nc3cc(N[C@H](C)C(C)C)c(C(N)=O)nn3)cc2)CC1 [Compound 75] , please.
7.00 to 8.00

Tell me the measured pIC50 of CC(=O)N1CCN(c2ccc(Nc3cc(NCc4cccc(-c5cccnc5)c4)c(C(N)=O)nn3)cc2)CC1 [Compound 70] , please.
7.00 to 8.00

Tell me the measured pIC50 of COc1ccccc1CNc1cc(Nc2ccc(N3CCN(C(C)=O)CC3)cc2)nnc1C(N)=O [Compound 24] , please.
7.00 to 8.00

Tell me the measured pIC50 of CC(c1ccc(Nc2cc(NCc3cccc(F)c3)c(C(N)=O)nn2)cc1)S(C)(=O)=O (centres unmarked) [Compound 96] , please.
7.00 to 8.00

Tell me the measured pIC50 of CC(=O)N1CCN(c2ccc(Nc3cc(NC4CCCCC4)c(C(N)=O)nn3)cc2)CC1 [Compound 8] , please.
7.00 to 8.00

Tell me the measured pIC50 of NC(=O)c1nnc(Nc2cnn(C3CCCC3)c2)cc1NCc1cccc2ccsc12 [Compound 115] , please.
7.00 to 8.00

Tell me the measured pIC50 of NC(=O)c1nnc(Nc2cnccn2)cc1NCc1cccc(-n2ccnc2)c1 [Compound 111] , please.
6.00 to 7.00

Tell me the measured pIC50 of CC(=O)Nc1cccc(Nc2cc(NC3CCC3)c(C(N)=O)nn2)c1 [Compound 7] , please.
6.00 to 7.00

Tell me the measured pIC50 of CN(C)C(=O)C1CCN(c2ccc(Nc3cc(NCc4ccccc4F)c(C(N)=O)nn3)cc2)CC1 [Compound 86] , please.
7.00 to 8.00

Tell me the measured pIC50 of CCC(=O)N1CCN(c2ccc(Nc3cc(NCc4ccccc4F)c(C(N)=O)nn3)cc2)CC1 [Compound 29] , please.
7.00 to 8.00

Tell me the measured pIC50 of NC(=O)c1nnc(Nc2ccc(N3CCOCC3)cc2)cc1NCc1cccc(F)c1 [Compound 35] , please.
7.00 to 8.00

Tell me the measured pIC50 of CC(C)(c1ccc(Nc2cc(NCc3cccc(F)c3)c(C(N)=O)nn2)cc1)S(C)(=O)=O [Compound 95] , please.
7.00 to 8.00

Tell me the measured pIC50 of CN(C)C(=O)N1CCC(Cn2cc(Nc3cc(NCc4cccc(F)c4F)c(C(N)=O)nn3)cn2)CC1 [Compound 133] , please.
8.00 to 9.00

Tell me the measured pIC50 of CC(=O)N1CCN(c2ccc(Nc3cc(NCc4cccc(-c5ccncc5)c4)c(C(N)=O)nn3)cc2)CC1 [Compound 69] , please.
7.00 to 8.00
